- system-name: GST-CARβ ligand binding domain fusion protein (Mus musculus)
- Construct: encoding amino acids 86 to 358 was subcloned
- Sequence (O35627 86-358): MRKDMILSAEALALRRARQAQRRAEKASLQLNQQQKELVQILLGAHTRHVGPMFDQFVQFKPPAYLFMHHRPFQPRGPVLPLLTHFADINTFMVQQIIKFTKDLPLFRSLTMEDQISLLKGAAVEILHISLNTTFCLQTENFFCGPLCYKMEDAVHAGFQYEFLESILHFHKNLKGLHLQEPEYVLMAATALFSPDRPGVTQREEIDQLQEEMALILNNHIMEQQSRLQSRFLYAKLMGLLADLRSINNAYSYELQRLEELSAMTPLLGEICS
- assay-info: Peptide sensor fluorescence polarization assay, GST-CARβ ligand binding domain
- settings: half-maximal concentration of stimulation of peptide sensor assay signal
measurement-type: EC50 (nM)
Numbers only, in nM.

// solved cases for EC50 follow
Clc1cnc(Oc2ccc(Oc3ncc(Cl)cc3Cl)cc2)c(Cl)c1 [TCPOBOP] = 60
CCOC(=O)C(Nc1ccc(OCc2ccccc2)cc1)c1ccccc1 (centres unmarked) [Compound T0037566] = 99.1
COc1ccc(C2CC(c3ccc(Cl)cc3)=NN2c2ccccc2Cl)c(OC)c1 (centres unmarked) [Compound T0318784] = 96.7
Clc1ccc(CSCc2cc(Sc3c(Cl)cccc3Cl)nc(-c3ccccn3)n2)cc1 [Compound T0434523] = 52.2

Attention now turns to another entry.
Ask: If you can, please state the reported EC50 value of CCN(CC)c1ccc(C2C3=C(CC(C)(C)CC3=O)OC3=C2C(=O)CC(C)(C)C3)c(OCc2ccc(Cl)cc2Cl)c1 [Compound T0438248] .
Reply: 65.4

###

What EC50 was measured for each of the following?
- system-name: GST-CARα ligand binding domain fusion protein (Homo sapiens, UniProt Q14994)
- Construct: made in house; host or cells: E. coli
- Sequence (Q14994 76-348 isoform Q14994-2): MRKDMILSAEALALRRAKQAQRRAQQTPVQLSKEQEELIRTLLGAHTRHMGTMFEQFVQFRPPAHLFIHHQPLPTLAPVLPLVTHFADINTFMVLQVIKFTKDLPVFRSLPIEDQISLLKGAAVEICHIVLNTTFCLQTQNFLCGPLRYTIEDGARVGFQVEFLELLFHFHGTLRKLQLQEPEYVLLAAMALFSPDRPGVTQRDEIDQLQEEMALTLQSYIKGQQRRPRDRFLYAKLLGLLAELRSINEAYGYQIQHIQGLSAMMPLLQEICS
- assay-info: Peptide sensor fluorescence polarization assay, GST-CARα ligand binding domain with rhodamine-[…] (SRC-1 peptide)
- settings: half-maximal concentration of stimulation of peptide sensor assay signal; read-out: GST-CARα EC50
Answers are plain numbers, in nM.

// solved cases for EC50 follow
CCN(CC)c1ccc(C2C3=C(CC(C)(C)CC3=O)OC3=C2C(=O)CC(C)(C)C3)c(OCc2ccc(Cl)cc2Cl)c1 = 5.25
COc1ccc(C2CC(c3ccc(Cl)cc3)=NN2c2ccccc2Cl)c(OC)c1 (stereo not shown) = 91.2
Clc1ccc(CSCc2cc(Sc3c(Cl)cccc3Cl)nc(-c3ccccn3)n2)cc1 = 79.7

Attention now turns to another entry.
Ask: API: value(readout= EC50, system= GST-CARα ligand binding domain fusion protein (Homo sapiens, UniProt Q14994), query= CCOC(=O)C(Nc1ccc(OCc2ccccc2)cc1)c1ccccc1 (stereo not shown) )
Reply: 221

###

What CMV-CARα, fold increase in normalized luciferase activity over DMSO control was measured for each of the following?
- system-name: CARα (Homo sapiens)
- Construct: expressed in transfected cells; host or cells: CV-1 cells
- Sequence (Q14994 1-348 isoform Q14994-2): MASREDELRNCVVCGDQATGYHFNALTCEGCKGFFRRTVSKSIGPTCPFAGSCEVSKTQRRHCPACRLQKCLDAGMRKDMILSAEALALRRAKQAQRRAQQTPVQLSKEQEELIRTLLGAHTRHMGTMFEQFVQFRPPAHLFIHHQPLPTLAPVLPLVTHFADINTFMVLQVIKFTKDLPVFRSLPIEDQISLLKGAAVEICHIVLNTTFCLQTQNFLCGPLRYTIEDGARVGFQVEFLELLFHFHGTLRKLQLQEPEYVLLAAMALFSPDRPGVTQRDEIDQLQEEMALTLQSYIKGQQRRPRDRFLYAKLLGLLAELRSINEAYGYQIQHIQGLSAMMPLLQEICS
- Assay type: cell-based
Give bare numbers.

Clc1ccc(CSCc2cc(Sc3c(Cl)cccc3Cl)nc(-c3ccccn3)n2)cc1 = 2.17

Would you be so kind as to report CMV-CARα, fold increase in normalized luciferase activity over DMSO control for each listed record?
1. CCN(CC)c1ccc(C2C3=C(CC(C)(C)CC3=O)OC3=C2C(=O)CC(C)(C)C3)c(OCc2ccc(Cl)cc2Cl)c1
2. CCOC(=O)C(Nc1ccc(OCc2ccccc2)cc1)c1ccccc1 (stereo not shown)
3. COc1ccc(C2CC(c3ccc(Cl)cc3)=NN2c2ccccc2Cl)c(OC)c1 (stereo not shown)

Reply:
2.92
1.96
1.78

###

- system-name: CARβ (Mus musculus, UniProt O35627)
- Construct: expressed in transfected cells; host or cells: CV-1 cells
- Sequence (O35627 whole entry): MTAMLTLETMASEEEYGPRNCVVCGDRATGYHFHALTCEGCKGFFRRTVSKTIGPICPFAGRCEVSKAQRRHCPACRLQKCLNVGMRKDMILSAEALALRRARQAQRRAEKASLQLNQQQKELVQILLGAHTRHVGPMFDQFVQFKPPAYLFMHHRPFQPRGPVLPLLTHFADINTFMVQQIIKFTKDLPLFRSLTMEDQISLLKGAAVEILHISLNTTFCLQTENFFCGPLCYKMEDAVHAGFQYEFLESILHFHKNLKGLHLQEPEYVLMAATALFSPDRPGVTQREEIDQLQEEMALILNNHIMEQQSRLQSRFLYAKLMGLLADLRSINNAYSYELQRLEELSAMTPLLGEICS
- Format: cell-based
What CMV-CARβ, fold increase in normalized luciferase activity over DMSO control was measured for each of the following?
One number for each entry.

CCOC(=O)C(Nc1ccc(OCc2ccccc2)cc1)c1ccccc1 (stereo not shown) = 2.14

Would you be so kind as to report CMV-CARβ, fold increase in normalized luciferase activity over DMSO control for each listed record?
1. COc1ccc(C2CC(c3ccc(Cl)cc3)=NN2c2ccccc2Cl)c(OC)c1 (stereo not shown)
2. CCN(CC)c1ccc(C2C3=C(CC(C)(C)CC3=O)OC3=C2C(=O)CC(C)(C)C3)c(OCc2ccc(Cl)cc2Cl)c1
3. Clc1ccc(CSCc2cc(Sc3c(Cl)cccc3Cl)nc(-c3ccccn3)n2)cc1

Reply:
1. 3.87
2. 0.96
3. 1.29

Just for reference, patent US20020152479A1 is where these values come from.
